meta.source: patent US11384097B2

- ASSAY_INFO: Metabolic stability in rat liver microsomes
- Format: in vitro ADME
- CONDITION_SUMMARY: rat liver microsomes 0.5 mg/mL, 1 μM compound, NADPH 1 mM; read-out: Half-life/(T1/2, min)
QUANTITY: half-life at 1 µM (min)
One number for each entry, in min.

// worked examples, half-life at 1 µM included
>  <COMPOUND>
COc1ccc(COc2c(OC)ccc3c2C[C@@H](C(=O)O)N(c2nc4ccc(C#N)cc4o2)C3)cc1 [Example 42]

>  <half-life at 1 µM [min]>
451

$$$$
>  <COMPOUND>
CCS(=O)(=O)NC(=O)[C@@H]1Cc2c(ccc(OC)c2COc2ccccc2)CN1c1nc2ccc(F)cc2o1 [Example 19]

>  <half-life at 1 µM [min]>
175

$$$$
>  <COMPOUND>
COc1ccc2c(c1OCc1ccccc1)C[C@@H](C(=O)O)N(C(=O)C(c1ccccc1)c1ccccc1)C2 [olodanrigan, reference compound]

>  <half-life at 1 µM [min]>
96.3

$$$$

Annotate the compound COc1ccc2c(c1OCc1ccccc1)C[C@@H](C(=O)O)N(c1nc3ccc(C#N)cc3o1)C2 [Example 15] with its measured half-life at 1 µM.
317
